Entry source: patent US5554640A

TGT: serotonin-1A receptor (5-HT1A) (Rattus norvegicus)
Sequence (P19327 whole entry): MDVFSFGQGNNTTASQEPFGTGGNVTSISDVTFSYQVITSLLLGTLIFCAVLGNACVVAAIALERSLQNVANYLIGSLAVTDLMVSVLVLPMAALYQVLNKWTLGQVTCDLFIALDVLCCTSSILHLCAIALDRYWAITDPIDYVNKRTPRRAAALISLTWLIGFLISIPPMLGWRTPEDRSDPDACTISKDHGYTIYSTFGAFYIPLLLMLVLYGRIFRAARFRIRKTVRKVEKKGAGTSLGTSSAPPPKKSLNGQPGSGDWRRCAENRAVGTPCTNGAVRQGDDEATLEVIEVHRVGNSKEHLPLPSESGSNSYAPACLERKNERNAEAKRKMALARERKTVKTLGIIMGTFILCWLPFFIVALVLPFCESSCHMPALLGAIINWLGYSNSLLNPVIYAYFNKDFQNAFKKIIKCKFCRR
EXPERIMENT_SUMMARY: biochemical
Assay type: binding, rat (Sprague-Dawley)
PROTOCOL_CONDITIONS: selectivity for 5-HT1A over beta receptor; Beta IC50 from 3H-dihydroalprenolol binding
ENDPOINT: Ratio Beta IC50 / 5-HT1A IC50

Q) Given the compound C=CC(C)(C)NCC(O)COc1cccc2ccccc12 (centres unmarked) [C(CH3)2 CHCH2] , what is its reported Ratio Beta IC50 / 5-HT1A IC50?
A) 1.24

Q) Given the compound CC(C)CNCC(O)COc1cccc2ccccc12 (centres unmarked) [CH2 CH(CH3)2] , what is its reported Ratio Beta IC50 / 5-HT1A IC50?
A) 9.4

Q) Given the compound O=C(O)C(=O)O.OC(CNC1CCCCCC1)COc1cccc2ccccc12 (centres unmarked) [(cycloheptyl)] , what is its reported Ratio Beta IC50 / 5-HT1A IC50?
A) 99

Q) Given the compound OC(CNCCc1ccccc1)COc1cccc2ccccc12 (centres unmarked) [CH2 CH2 C6 H5] , what is its reported Ratio Beta IC50 / 5-HT1A IC50?
A) 4.8

Q) Given the compound OC(CN[C@H]1CC[C@H](c2ccccc2)CC1)COc1cccc2ccccc12 (some centres unmarked) [(E-4-phenylcyclohexyl)] , what is its reported Ratio Beta IC50 / 5-HT1A IC50?
A) < 0.26

Q) Given the compound CCCCNCC(O)COc1cccc2ccccc12 (centres unmarked) [CH2 CH2 CH2 CH3] , what is its reported Ratio Beta IC50 / 5-HT1A IC50?
A) 3.4

Q) Given the compound C#CC(C)(C)NCC(O)COc1cccc2ccccc12 (centres unmarked) [C(CH3)2 CCH] , what is its reported Ratio Beta IC50 / 5-HT1A IC50?
A) 15.4

Q) Given the compound OC(CNC1CCCCC1)COc1cccc2ccccc12 (centres unmarked) [(cyclohexyl)] , what is its reported Ratio Beta IC50 / 5-HT1A IC50?
A) 40.4

Q) Given the compound CCCC(C)(C)NCC(O)COc1cccc2ccccc12 (centres unmarked) [C(CH3)2 CH2 CH2 CH3] , what is its reported Ratio Beta IC50 / 5-HT1A IC50?
A) 2.4

Q) Given the compound CC(C)(C)NCC(O)COc1cccc2ccccc12 (centres unmarked) [C(CH3)3] , what is its reported Ratio Beta IC50 / 5-HT1A IC50?
A) 1.3

Q) Given the compound CC1CCCCC1NCC(O)COc1cccc2ccccc12 (centres unmarked) [(2-methylcyclohexyl)] , what is its reported Ratio Beta IC50 / 5-HT1A IC50?
A) 5.2

Q) Given the compound CC(C)(C)C(C)(C)NCC(O)COc1cccc2ccccc12 (centres unmarked) [C(CH3)2 C(CH3)3] , what is its reported Ratio Beta IC50 / 5-HT1A IC50?
A) 15.2

Q) Given the compound OC(CNC1CCCC1)COc1cccc2ccccc12 (centres unmarked) [(cyclopentyl)] , what is its reported Ratio Beta IC50 / 5-HT1A IC50?
A) 2.8

Q) Given the compound O=C(O)C(=O)O.OC(CNC1CCCCCCC1)COc1cccc2ccccc12 (centres unmarked) [(cyclooctyl)] , what is its reported Ratio Beta IC50 / 5-HT1A IC50?
A) 22.2

Q) Given the compound CCC(C)(C)NCC(O)COc1cccc2ccccc12 (centres unmarked) [C(CH3)2 CH2 CH3] , what is its reported Ratio Beta IC50 / 5-HT1A IC50?
A) 20

Q) Given the compound OC(CNC1CCCC1)COc1ccccc1C1CCCC1 (centres unmarked) [cyclopentyl] , what is its reported Ratio Beta IC50 / 5-HT1A IC50?
A) 1.4

Q) Given the compound O=C(O)C(=O)O.OC(CNC1CCCCCC1)COc1ccccc1C1CCCC1 (centres unmarked) [cycloheptyl] , what is its reported Ratio Beta IC50 / 5-HT1A IC50?
A) 16

Q) Given the compound CCCCCNCC(O)COc1cccc2ccccc12 (centres unmarked) [CH2 CH2 CH2 CH2 CH3] , what is its reported Ratio Beta IC50 / 5-HT1A IC50?
A) 7.9

Q) Given the compound CCC(C)NCC(O)COc1cccc2ccccc12 (centres unmarked) [CH(CH3)CH2 CH3] , what is its reported Ratio Beta IC50 / 5-HT1A IC50?
A) 1.4

Q) Given the compound CCCC(C)(C)NCC(O)COc1ccccc1C1CCCC1.O=C(O)C(=O)O (centres unmarked) [CH(CH3)2 CH2 CH2 CH3] , what is its reported Ratio Beta IC50 / 5-HT1A IC50?
A) 2.5
